Tested on: NCI/ADR-RES ovarian
Test: NCI tumour cell line growth inhibition, 48 h
Parameter: TGI

Here is how some compounds turned out for TGI.
O=C1/C(=C/c2ccc(Cl)cc2)N=C(c2ccccc2)N1/N=C/c1ccccc1O	97.6 µM
CO[C@H]1O[C@@H]2OC3(C)CCC4[C@H](C)CCC([C@H]1C)[C@]42OO3 (stereo partly specified)	> 100 µM
COC(=O)[C@H](COC(C)(C)C)NC(=O)N[C@H](C)c1ccccc1	> 100 µM
CCCCCCCc1cscc1-c1cscc1Br	> 100 µM
COC(=O)[C@@H](OC(C)=O)[C@@H](OC(C)=O)c1nnc2ccc(Cl)nn12	> 100 µM

Provide reported TGI for each item, in the same order as listed.
1. COc1ccccc1NC(=O)C(=O)Cc1cnc2ccccc2n1
2. O=C(Nc1ccc(I)cc1)c1cccc([N+](=O)[O-])c1O
3. CC(=O)OCC1OC(OC(C)=O)C(Nc2ncc(-c3ccc(C)cc3)s2)C(OC(C)=O)C1OC(C)=O (stereo unspecified)
4. C=C1CC(C)(COc2cc(=O)oc3ccccc23)OC1=O (stereo unspecified)
5. O=C(c1ccccc1)C(Nc1ccc2ccccc2c1)c1ccccc1 (stereo unspecified)
6. COc1ccc(NS(=O)c2c(C)cc(C)cc2C)cc1 (stereo unspecified)

Marked response:
1. > 100 µM
2. > 100 µM
3. 76.8 µM
4. 24 µM
5. > 100 µM
6. > 100 µM

----------
Tested on: HOP-62 NSCLC
Assay: NCI tumour cell line growth inhibition, 48 h; in the data active means GI50 below about 0.43 µM; inactive means the rest
Respond only with the outcome that fits, drawn from t = active, f = inactive

CCOC(=O)Nc1ccc2c(c1)N(C(=O)CCN(CC)CC)c1ccccc1S2	f
CC(=O)OCC1OC([Se-])C(OC(C)=O)C(OC(C)=O)C1OC(C)=O.N#CCC[PH+](CCC#N)CCC#N.[Au+] (centres undefined)	f
O=C1c2cccnc2C(=O)c2c1c(C(=O)OCCc1ccccn1)c1ccccn21	t

Exam item: Which outcome was entered for the compound CCN1C(=O)N(CC)C2C1NC(=S)N2/N=C/C=C/c1ccccc1OC (centres undefined) in this test?
Marked response: t

Exam item: Tell me the assay call for `O=C1/C(=C\c2ccccc2)CN(C(=O)c2ccccc2)C/C1=C\c1ccccc1` please.
Marked response: f

Exam item: Test call, this compound: `C/C(=N\O)c1cccc(Nc2cc(-c3ccccc3)nc3c(O)cccc23)c1`
Marked response: f

Exam item: Assay result, entry `NC(=N\N=C/c1ccc(Cl)cc1Cl)/C(N)=N\N=C/c1ccc(Cl)cc1Cl` — outcome?
Marked response: f

Exam item: I'd appreciate the recorded outcome for `O=Cc1ccc(-c2ccc(-c3ccc(C=O)o3)[se]2)o1` from this test.
Marked response: f

Exam item: Can you look up the reported call for CCN(CC)CC(O)COc1c(Br)c(Br)c(Br)c2c1OC(C)(C)C2 (centres undefined) for me?
Marked response: f

Exam item: Test call for this compound, please: `N#Cc1c2ccccc2c2nnc3ccc(C(F)(F)F)cc3n12`
Marked response: f

----------
Tested on: HCC-2998 colon
Assay: NCI tumour cell line growth inhibition, 48 h
For each record, write down the corresponding log10 TGI.
Plainly stated, the numbers are log10 of TGI given in µM.

Could you report log10 TGI for every entry in the following list?
1. CN(CSc1ccc(Cl)cc1)c1ccc(CSc2ccc(Cl)cc2)cc1
2. c1ccc2cc(CNCCCCNCCCNCc3ccc4ccccc4c3)ccc2c1
3. COC1=CC(=O)c2c(cc3c(c2O)-c2c(OC)cc4cc5c(c(O)c4c2OC(=O)CC(C)(O)C3)C(=O)CC(C)(O)C5)C1=O (stereo not given)
4. CC(C)OCc1cc(CN2CCN(c3cccc(Cl)c3)CC2)c(O)c2ncccc12
5. C/C(=N\O)c1cccc(Nc2cc(-c3ccccc3)nc3c(O)cccc23)c1

Marked response:
1. 1.26
2. -0.03
3. 0.51
4. 1.05
5. 1.15

Origin of values: PubChem BioAssay (NCI)
